Target: HLA-A*68:01
Assay: IEDB peptide-MHC binding, purified MHC/competitive/radioactivity; filed as Kd, often an IC50 or EC50 that approximates it; bounds were set here for any values at or beyond the usual limits of such assays
Details: source organism: Lymphocytic choriomeningitis virus (strain Armstrong)
Quantity Kind: Kd

sequence_data=SKFWYLEHAK result="≥ 30.6 µM"

Request: Endpoint output: Kd of "DHVSTLLTWH" . Value?
Response: 12.3 µM

* * *

Target: HLA-B*18:01
Assay: IEDB peptide-MHC binding, purified MHC/direct/fluorescence; filed as Kd, often an IC50 or EC50 that approximates it; bounds were set here for any values at or beyond the usual limits of such assays
Details: source organism: Influenza A virus (A/quail/Hong Kong/FY298/00(H9N2))
Quantity Kind: Kd

Request: Endpoint output: Kd of "ALTLNTMTK" . Value?
Response: ≥ 20 µM

* * *

Target: HLA-B*40:01
Assay: IEDB peptide-MHC binding, purified MHC/direct/fluorescence; filed as Kd, often an IC50 or EC50 that approximates it; bounds were set here for any values at or beyond the usual limits of such assays
Settings: source organism: Yersinia pestis Antiqua
Quantity Kind: Kd

Request: What reported Kd corresponds to "RYQRMTGGY" on HLA-B*40:01?
Response: ≥ 20 µM

* * *

Target: HLA-A*68:01
Assay: IEDB peptide-MHC binding, purified MHC/competitive/radioactivity; filed as Kd, often an IC50 or EC50 that approximates it; bounds were set here for any values at or beyond the usual limits of such assays
Conditions: source organism: Lassa virus Josiah
Record form. Attribute: Kd. Fill in for each entry.
Number first, unit second.

sequence_data=VTFLLLCGR assay_system=HLA-A*68:01 result="13.8 nM"

Please examine the following record next.
Request: Endpoint output: Kd of "LTYSQLMTLK" . Value?
Response: 5 nM

* * *

Record form. Attribute: Kd. Fill in for each entry.
Target: HLA-A*01:01
Assay: IEDB peptide-MHC binding, purified MHC/direct/fluorescence; filed as Kd, often an IC50 or EC50 that approximates it; bounds were set here for any values at or beyond the usual limits of such assays
Details: source organism: Vibrio cholerae

sequence_data=TTILGLLPM result="≥ 20 µM"

Please examine the following record next.
Request: Endpoint output: Kd of "AYYWNQNGF" . Value?
Response: ≥ 20 µM

* * *

Record form. Attribute: IC50. Fill in for each entry.
Molecular target: HLA-A*24:02
Test: IEDB peptide-MHC binding, purified MHC/competitive/fluorescence; bounds were set here for any values at or beyond the usual limits of such assays
Conditions: source organism: Sudan ebolavirus
Numbers only, in µM.

# count of solved cases: 3
sequence_data=ILFQKAFSM numeric_result=0.336
sequence_data=YDRLASTVI numeric_result=2.49
sequence_data=TTQALQLFL numeric_result=6.61

Please examine the following record next.
Request: Endpoint output: IC50 of "GAQHSTTLF" . Value?
Response: 42.1

* * *

Biological target: HLA-A*68:01
Assay: IEDB peptide-MHC binding, purified MHC/competitive/radioactivity; filed as Kd, often an IC50 or EC50 that approximates it; bounds were set here for any values at or beyond the usual limits of such assays
Details: source organism: Triticum aestivum
Quantity Kind: pKd
One number for each entry, as −log10 of the molar value.

Request: What reported pKd corresponds to "NVVHAIILH" on HLA-A*68:01?
Response: 5.83
